- targetEntity: HLA-A*02:01 (Homo sapiens, UniProt P04439, D140Y/D185E/D98H/E176V/E277Q/G131W/G231S/I119V/I121R/I166T/I218V/L300P/L318F/N151K/N90K/P208A/P217A/Q86G/Q94H/R138H/R169H/T345S)
- assay: MHC binding assay (UV-ligand exchange, β2m ELISA)
- condition: MHC class I binding score; binding to HLA-A*02:01 ranged by peptide exchange yield (UV-ligand exchange, β2m ELISA)
valueType: Peptide exchange

38 (KLGFGTGVNVYL; listed as Homo sapiens) [compound 38] | ++++ (>75% = ++++)
229 (LLEPFVHQV; listed as Homo sapiens) [compound 229] | ++++ (>75% = ++++)
145 (TLPNIYVTL; listed as Homo sapiens) [compound 145] | +++ (>50 = +++)
41 (LLDDPTNAHFI; listed as Homo sapiens) [compound 41] | +++ (>50 = +++)
7 (NLQEKVPEL; listed as Homo sapiens) [compound 7] | +++ (>50 = +++)

Give the measured Peptide exchange for 54 (LLDSGAFHL; listed as Homo sapiens) [compound 54]
+++ (>50 = +++)

Give the measured Peptide exchange for 29 (ILDDVAMVL; listed as Homo sapiens) [compound 29]
+++ (>50 = +++)

Give the measured Peptide exchange for 171 (KVSGVILSV; listed as Homo sapiens) [compound 171]
++++ (>75% = ++++)

Give the measured Peptide exchange for 188 (VVVDPIQSV; listed as Homo sapiens) [compound 188]
+++ (>50 = +++)

Give the measured Peptide exchange for 141 (YVIDPIKGL; listed as Homo sapiens) [compound 141]
+++ (>50 = +++)

Give the measured Peptide exchange for 201 (SLIDRTIKM; listed as Homo sapiens) [compound 201]
+++ (>50 = +++)

Give the measured Peptide exchange for 177 (ILWDTLLRL; listed as Homo sapiens) [compound 177]
++++ (>75% = ++++)

Give the measured Peptide exchange for 195 (IAAGIFNDL; listed as Homo sapiens) [compound 195]
+ (>10% = +)

Give the measured Peptide exchange for 180 (KLAEALYIA; listed as Homo sapiens) [compound 180]
+++ (>50 = +++)

Give the measured Peptide exchange for 55 (NLDKLYHGL; listed as Homo sapiens) [compound 55]
+ (>10% = +)

Give the measured Peptide exchange for 136 (FAYDGKDYIAL; listed as Homo sapiens) [compound 136]
+++ (>50 = +++)

Give the measured Peptide exchange for 143 (ILDDSALYL; listed as Homo sapiens) [compound 143]
++++ (>75% = ++++)

Give the measured Peptide exchange for 187 (SLPRPTPQA; listed as Homo sapiens) [compound 187]
+++ (>50 = +++)

Give the measured Peptide exchange for 162 (TLDGNPFLV; listed as Homo sapiens) [compound 162]
+++ (>50 = +++)

Give the measured Peptide exchange for 100 (NLREILQNV; listed as Homo sapiens) [compound 100]
+++ (>50 = +++)

====

- targetEntity: HLA-A*02:01 (Homo sapiens, UniProt P04439, D140Y/D185E/D98H/E176V/E277Q/G131W/G231S/I119V/I121R/I166T/I218V/L300P/L318F/N151K/N90K/P208A/P217A/Q86G/Q94H/R138H/R169H/T345S)
- assay: MHC binding assay (UV-ligand exchange, β2m ELISA)
- condition: MHC class I binding score; binding to HLA-A*02:01 ranged by peptide exchange yield (UV-ligand exchange, β2m ELISA)
valueType: Peptide exchange

48 (HLIGWTAFL; listed as Homo sapiens) [compound 48] | ++++ (>75% = ++++)
70 (LIDEAAQML; listed as Homo sapiens) [compound 70] | +++ (>50 = +++)
49 (ALLSQDFEL; listed as Homo sapiens) [compound 49] | ++++ (>75% = ++++)
142 (FVDGSAIQV; listed as Homo sapiens) [compound 142] | +++ (>50 = +++)
105 (SLKQTVVTL; listed as Homo sapiens) [compound 105] | +++ (>50 = +++)

Give the measured Peptide exchange for 226 (VLNEYFHNV; listed as Homo sapiens) [compound 226]
++++ (>75% = ++++)

Give the measured Peptide exchange for 126 (SLIDFVVTC; listed as Homo sapiens) [compound 126]
+++ (>50 = +++)
